- system: Receptor tyrosine-protein kinase erbB-2 (Homo sapiens)
- Sequence (P04626 whole entry): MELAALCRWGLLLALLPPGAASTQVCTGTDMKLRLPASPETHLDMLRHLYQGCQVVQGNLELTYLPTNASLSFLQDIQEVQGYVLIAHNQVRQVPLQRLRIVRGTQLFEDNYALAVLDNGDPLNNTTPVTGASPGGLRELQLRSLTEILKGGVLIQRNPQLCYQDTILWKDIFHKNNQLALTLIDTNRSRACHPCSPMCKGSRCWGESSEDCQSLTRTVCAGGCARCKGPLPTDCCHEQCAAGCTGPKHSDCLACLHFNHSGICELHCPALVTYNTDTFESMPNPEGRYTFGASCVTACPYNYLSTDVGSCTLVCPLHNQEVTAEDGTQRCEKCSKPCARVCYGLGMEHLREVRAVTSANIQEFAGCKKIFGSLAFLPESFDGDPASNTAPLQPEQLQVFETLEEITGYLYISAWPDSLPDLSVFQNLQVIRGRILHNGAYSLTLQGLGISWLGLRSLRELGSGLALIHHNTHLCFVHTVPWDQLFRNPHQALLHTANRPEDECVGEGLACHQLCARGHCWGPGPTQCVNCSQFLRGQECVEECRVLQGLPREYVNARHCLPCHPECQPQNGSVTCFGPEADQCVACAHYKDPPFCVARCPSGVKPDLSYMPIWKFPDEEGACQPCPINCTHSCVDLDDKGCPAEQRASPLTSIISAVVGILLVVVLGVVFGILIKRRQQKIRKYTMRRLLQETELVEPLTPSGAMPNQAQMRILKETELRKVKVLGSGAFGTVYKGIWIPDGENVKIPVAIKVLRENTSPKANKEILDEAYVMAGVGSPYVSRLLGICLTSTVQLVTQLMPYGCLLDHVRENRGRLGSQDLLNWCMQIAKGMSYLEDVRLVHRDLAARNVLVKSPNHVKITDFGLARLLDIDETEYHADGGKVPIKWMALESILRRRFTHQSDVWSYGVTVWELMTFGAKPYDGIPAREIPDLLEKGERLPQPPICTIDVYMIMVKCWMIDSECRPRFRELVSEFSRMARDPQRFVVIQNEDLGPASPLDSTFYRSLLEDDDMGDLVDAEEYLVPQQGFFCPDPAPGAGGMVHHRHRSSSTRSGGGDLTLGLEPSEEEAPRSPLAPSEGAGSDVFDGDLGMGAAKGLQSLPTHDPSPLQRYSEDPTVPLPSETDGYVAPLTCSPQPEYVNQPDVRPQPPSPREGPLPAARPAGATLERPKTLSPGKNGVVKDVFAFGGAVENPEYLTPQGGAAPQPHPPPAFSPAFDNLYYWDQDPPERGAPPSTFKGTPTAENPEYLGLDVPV
- procedureSummary: Inhibition of ERBB2 autophosphorylation Tyr 1139 residue in human BT474 cells at 2 to 14 uM after 12 hrs by Western blotting
measure: pKi
Expect pKi as a plain number equal to -log10 of the molar concentration.

Exercise: Please give the measured pKi for this compound: CN(C)c1ccc(/C=C/c2ccc3ncnc(NCc4ccccc4)c3c2)cc1
Solution: 5.51
